Test: protein stability index of a GFP-peptide fusion (yeast GPS) (PSI 1-4); higher = more stable; sorted into four equal gates, so the index is relative within each strain
Conditions: ubr1∆
recorded-endpoint: protein stability index
Could you respond with only the numeric value?

# annotated cases, reported protein stability index shown
{"columns": ["chain-sequence", "recorded-endpoint", "meas-value"],
 "data": [
  ["ISPKGGRRISENGQRDL [RPS19A]", "protein stability index", 2.86],
  ["TLSPNVTDSSLLKLLTR [GRR1]", "protein stability index", 2.82],
  ["HGILDDLETSLSQSSSY [MED2]", "protein stability index", 3.29],
  ["VNQDKANNASQITPTVP [SNF12]", "protein stability index", 3.18],
  ["ATKEGVVLGVEKRATSP [PUP2]", "protein stability index", 3.19],
  ["YASKINRAEGPEELARI [RGR1]", "protein stability index", 3.24],
  ["VVLYNYYLGQYYGCLEN [CSN12]", "protein stability index", 1.97],
  ["LWDQDIAIAGTGQIEGL [COR1]", "protein stability index", 2.98],
  ["NSSSMEEVMRIALMGQD [ESC2]", "protein stability index", 2.62],
  ["DRVIFRVPIRSEYKVAF [PRP8]", "protein stability index", 2.42]
]}

Q: Return reported protein stability index; argument: PRRYGKGSRQCRVCSSH [RPS29A]
Result: 2.91

Q: Return reported protein stability index; argument: EKCKEINVETVYDIMAL [BRR2]
Result: 2.5

Q: Return reported protein stability index; argument: SNSNNNGNKDSSFNFNK [SWI1]
Result: 3.16

Q: Return reported protein stability index; argument: KDFIENVNNRFDNFLTE [BRN1]
Result: 2.88

Q: Return reported protein stability index; argument: DDDDYNAEKYFNNGDDD [RPC31]
Result: 3.19

----------
Experiment: protein stability index of a GFP-peptide fusion (yeast GPS) (PSI 1-4); higher = more stable; sorted into four equal gates, so the index is relative within each strain
Conditions: ubr1∆
protein stability index below 3 gives NO; protein stability index at or above it gives YES.

{"columns": ["chain-sequence", "assigned-class"],
 "data": [
  ["TILCTPTGGKAKLSEGT [RPS27A]", "NO"]
]}

Q: Hi, just wondering whether TCAVGVKGKNCVVLGCE [PRE6] shows protein stability index of 3 or higher.
Result: YES

Q: Hi, just wondering whether RESLIMLLEEQLEYKRG [MED7] shows protein stability index of 3 or higher.
Result: NO

Q: Hi, just wondering whether EKINRMIIFLKNYDATD [CSI1] shows protein stability index of 3 or higher.
Result: NO

Q: Hi, just wondering whether PLQSIPEIGNRKINLFY [SWI1] shows protein stability index of 3 or higher.
Result: NO

Q: Hi, just wondering whether TAGKTSVKSARTSTRGR [SNF2] shows protein stability index of 3 or higher.
Result: YES

Q: Hi, just wondering whether VVNSNFAKEHNATVNLA [YJR042W/NUP85] shows protein stability index of 3 or higher.
Result: NO

Q: Hi, just wondering whether MNKDQAEKYQERSLRQK [SNM1] shows protein stability index of 3 or higher.
Result: YES

Q: Hi, just wondering whether TRHQNTIHAKRKIVFRC [RPN4] shows protein stability index of 3 or higher.
Result: NO

Q: Hi, just wondering whether GRRWNELRRFESSINTH [SKI6] shows protein stability index of 3 or higher.
Result: NO

Q: Hi, just wondering whether KSFTNDKIPLNYAMTRN [SRB5] shows protein stability index of 3 or higher.
Result: NO

Q: Hi, just wondering whether DAAEEEKEEEAKEESDD [RPP2B] shows protein stability index of 3 or higher.
Result: YES

Q: Hi, just wondering whether IVPSMTHLEIEPFTILG [RET1] shows protein stability index of 3 or higher.
Result: NO

Q: Hi, just wondering whether IQQLISQFLKRVHANLQ [SNF11] shows protein stability index of 3 or higher.
Result: NO

Q: Hi, just wondering whether AKFFLNVSDEQLSNWQK [ITC1] shows protein stability index of 3 or higher.
Result: YES

Q: Hi, just wondering whether EEAAGTKMFEDRREKAE [SMC2] shows protein stability index of 3 or higher.
Result: YES

Q: Hi, just wondering whether NVFVILMDKCLPKVRIR [DIS3] shows protein stability index of 3 or higher.
Result: NO
